target: Human Cbl-b (residues 40-426) (Homo sapiens (Human)); assay: Cbl-b SPR assay; assay type: binding; settings: C-cbl SPR Kd vs Cbl-b SPR Kd
Note to self: use criterion met only for Fold of selectivity readings below 10 ×; a reading exactly at 10 × still gets criterion not met.

Compound	Class Assignment
C[C@@H](NC1(C)CCC1)c1cc(Cl)c2c(c1)C(=O)N(c1cccc([C@]3(c4nncn4C)C[C@@H](F)C3)c1)C2 (single isomer, unassigned)	criterion met
CO[C@H]1C[C@](c2cc(NC3CCCC3)nc(N3Cc4c(cc(CNC5(C)CCC5)cc4C(F)(F)F)C3=O)c2)(c2nncn2C)C1 [Compound 70]	criterion not met
Cn1cnnc1[C@]1(c2cccc(N3Cc4c(cc(CNC5(C)CCC5)cc4C(F)F)C3=O)c2)C[C@@H](F)C1	criterion met
Cn1cnnc1[C@@H](c1cccc(N2Cc3c(cc(CNC4(C)CCC4)cc3C(F)(F)F)C2=O)c1)[C@H]1C[C@H](OC(F)(F)F)C1 (single isomer, unassigned)	criterion met
CO[C@H]1C[C@@](c2cc(OC3COC3)cc(N3Cc4c(cc(CNC5(C)CCC5)cc4C(F)(F)F)C3=O)c2)(c2nncn2C)C1	criterion met
Cn1cnnc1[C@@H](c1cccc(N2Cc3c(cc([C@@H](NC4(C)CCC4)C4CC4)cc3C(F)(F)F)C2=O)c1)C1COC1 (single isomer, unassigned)	criterion not met
Cn1cnnc1[C@H](c1cccc(N2Cc3c(cc(CNC4(C)CCC4)cc3C(F)(F)F)C2=O)c1)C1CC(OCC(F)F)C1 (single isomer, unassigned) [Compound 263]	criterion met
CO[C@H]1C[C@](c2cccc(N3Cc4c(cc(CNCC5(C)CC5)cc4C(F)(F)F)C3=O)c2)(c2nncn2C)C1	criterion not met
Cn1cnnc1[C@H](c1cccc(N2Cc3c(cc(CNC4(C)CCC4)cc3C(F)F)C2=O)c1)C1CC(F)C1 (stereo partly drawn)	criterion not met
CCOc1cc(C2(c3nncn3C)CC(F)(F)C2)cc(N2Cc3c(cc(CNC4(C)CCC4)cc3C(F)(F)F)C2=O)n1	criterion met
Cc1cnnn1[C@@H](c1cccc(N2Cc3c(cc(CNC4(C)CCC4)cc3C(F)(F)F)C2=O)c1)C1COC1 (single isomer, unassigned)	criterion met
CO[C@H]1C[C@](c2cc(NC3CCC3)cc(N3Cc4c(cc(CNC5(C)CCC5)cc4C(F)(F)F)C3=O)c2)(c2nncn2C)C1	criterion not met

###

Entries below carry reported IC50 on c-Cbl (Homo sapiens (Human), UniProt P22681).
Sequence (P22681 47-435): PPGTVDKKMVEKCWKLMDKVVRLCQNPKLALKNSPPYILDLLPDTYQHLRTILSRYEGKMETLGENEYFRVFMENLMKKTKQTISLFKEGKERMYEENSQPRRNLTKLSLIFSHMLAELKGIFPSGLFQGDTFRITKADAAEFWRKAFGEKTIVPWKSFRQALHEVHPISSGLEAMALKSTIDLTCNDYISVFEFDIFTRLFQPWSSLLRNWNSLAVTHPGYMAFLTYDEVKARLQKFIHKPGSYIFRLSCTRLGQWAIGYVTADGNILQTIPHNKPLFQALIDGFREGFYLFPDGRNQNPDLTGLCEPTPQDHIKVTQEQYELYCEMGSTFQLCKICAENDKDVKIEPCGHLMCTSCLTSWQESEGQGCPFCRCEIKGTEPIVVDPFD
Readout Kind: IC50 (µM)

In [3]: df
Out[3]:
                                   compound  readout_units  assay_result
0  Cn1cnnc1C1(c2cccc(N3Cc4c(cc(C(N)=O)cc4C(F)(F)F)C3=O)c2)CCC1             µM          0.55
1  Cn1cnnc1[C@H](c1cccc(N2Cc3c(cc(CNC4(C)CCC4)cc3C(F)(F)F)C2=O)c1)[C@H]1C[C@H](C)C1 (single isomer, unassigned)             µM          0.49
2  Cn1cnnc1[C@]1(c2cccc(N3Cc4c(cc(CNC5(C)CCC5)cc4C(F)(F)F)C3=O)c2)C[C@H](Cl)C1             µM        0.0042
3  Cn1cnnc1[C@H](CC1CCC1)c1cccc(N2Cc3c(cc(CNC4(C)CCC4)cc3C(F)(F)F)C2=O)c1             µM           2.7
4  Cn1cnnc1[C@@]1(c2cccc(N3Cc4c(cc(CNC5(C)CCC5)cc4C(F)(F)F)C3=O)c2)CCC(F)(F)C1 (single isomer, unassigned)             µM         0.081
5  CCOc1cc([C@]2(c3nncn3C)C[C@@H](C)C2)cc(N2Cc3c(cc(CNC4(C)CCC4)cc3C(F)(F)F)C2=O)n1             µM        0.0025

###

Entries below carry reported IC50 on c-Cbl (Homo sapiens (Human), UniProt P22681).
Readout Kind: IC50

Molecule	Readout Kind	Assay Result
Cn1cnnc1[C@@H](c1cccc(N2Cc3c(cc(CNC4(C)CCC4)cc3C(F)(F)F)C2=O)c1)C1CC(OCC(F)F)C1 (single isomer, unassigned) [Compound 261]	IC50	4.5 µM
Cn1cnnc1[C@](O)(c1cccc(N2Cc3c(cc(CNC4(C)CCC4)cc3C(F)(F)F)C2=O)c1)C(F)(F)F	IC50	12 µM
Cn1cnnc1[C@@H](c1cc(Cl)cc(N2Cc3c(cc(CNC4(C)CCC4)cc3C(F)(F)F)C2=O)c1)C1COC1 (single isomer, unassigned)	IC50	0.78 µM

###

target: Cbl-b (Homo sapiens (Human)); test: Cbl-b LCK Ub TR-FRET assay (Cbl-b Lck HTRF); type: biochemical; conditions: Cbl-b LCK Ub TR-FRET
Sequence (Q13191 40-426): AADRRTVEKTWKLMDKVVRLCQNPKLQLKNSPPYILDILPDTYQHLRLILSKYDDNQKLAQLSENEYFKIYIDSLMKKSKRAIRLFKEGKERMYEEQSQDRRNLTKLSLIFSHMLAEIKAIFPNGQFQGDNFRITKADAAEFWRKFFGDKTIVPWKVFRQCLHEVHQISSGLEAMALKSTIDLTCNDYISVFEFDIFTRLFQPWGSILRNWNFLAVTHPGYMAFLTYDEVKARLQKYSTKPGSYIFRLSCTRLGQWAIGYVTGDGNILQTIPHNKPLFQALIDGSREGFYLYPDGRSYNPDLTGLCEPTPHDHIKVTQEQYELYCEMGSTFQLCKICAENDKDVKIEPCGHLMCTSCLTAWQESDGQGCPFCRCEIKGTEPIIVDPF
// reported IC50 for each item listed
Readout Kind: IC50 (nM)

>>> print(df.to_string())
                                    compound  measurement_qualifier  assay_result
 0  CO[C@H]1C[C@](c2cc(NC3CCC3)cc(N3Cc4c(cc(CNC5(C)CCC5)cc4C(F)(F)F)C3=O)c2)(c2nncn2C)C1                      =            15
 1  C[C@H]1C[C@](c2cccc(N3Cc4c(cc(CNC5(C)CCC5)cc4C(F)(F)F)C3=O)c2)(c2nncn2C)O1                      =           410
 2  CCOC1CC([C@H](c2cccc(N3Cc4c(cc(CNC5(C)CCC5)cc4C(F)(F)F)C3=O)c2)c2nncn2C)C1 (single isomer, unassigned) [Compound 264]                      =          5100
 3  CC(=O)N1CC([C@H](c2cccc(N3Cc4c(cc(CNC5(C)CCC5)cc4C(F)(F)F)C3=O)c2)c2nncn2C)C1 (single isomer, unassigned)                      =          8500
 4  Cn1cnnc1[C@H](CC1COC1)c1cccc(N2Cc3c(cc(CNC4(C)CCC4)cc3C(F)(F)F)C2=O)c1                      =            49
 5  Cn1cnnc1[C@]1(c2cccc(N3Cc4c(cc(CNC5(C)CCC5)cc4C(F)(F)F)C3=O)c2)C[C@H](CC#N)C1                      =            12
 6  CC[C@@H](NC1(C)CCC1)c1cc2c(c(C(F)(F)F)c1)CN(c1cccc([C@@H](c3nncn3C)C3COC3)c1)C2=O (single isomer, unassigned)                      =           270
 7  CO[C@H]1C[C@@](c2cccc(N3Cc4c(cc([C@H](C)NC5(C)CCC5)cc4C(F)(F)F)C3=O)c2)(c2nncn2C)C1 (single isomer, unassigned)                      =            62
 8  Cn1cnnc1[C@@H](c1cccc(N2Cc3c(cc(CNC4(C)CCC4)cc3C(F)F)C2=O)c1)C1COC1 (single isomer, unassigned)                      =            11
 9  CCCN1CC(c2cc3c(c(C(F)(F)F)c2)CN(c2cccc([C@H](c4nncn4C)C4COC4)c2)C3=O)C1                      =           110
10  CO[C@H]1C[C@](c2cc(NCCC#N)cc(N3Cc4c(cc(CNC5(C)CCC5)cc4C(F)(F)F)C3=O)c2)(c2nncn2C)C1                      =            14
11  CO[C@H]1C[C@@](c2cc(NC3CCC3)cc(N3Cc4c(cc(CNC5(C)CCC5)cc4C(F)(F)F)C3=O)c2)(c2nncn2C)C1                      =            18
12  CO[C@H]1C[C@@](c2cc(C)cc(N3Cc4c(cc(CNC5(C)CCC5)cc4C(F)(F)F)C3=O)c2)(c2nncn2C)C1                      =           340
13  Cn1cnnc1[C@@H](CC1CCOCC1)c1cccc(N2Cc3c(cc(CNC4(C)CCC4)cc3C(F)(F)F)C2=O)c1                      =           120
14  Cn1cnnc1[C@@H](CC1CCC1)c1cccc(N2Cc3c(cc(CNC4(C)CCC4)cc3C(F)(F)F)C2=O)c1                      =            76
15  C=C1CC(c2cccc(N3Cc4c(cc(CNC5(C)CCC5)cc4C(F)(F)F)C3=O)c2)(c2nncn2C)C1                      =           7.9
16  Cn1cnnc1[C@]1(c2cc(NC3CCCC3)nc(N3Cc4c(cc(CNC5(C)CCC5)cc4C(F)(F)F)C3=O)c2)C[C@@H](C)C1                      =           7.2
17  Cn1cnnc1[C@@H](CC1CCCC1)c1cccc(N2Cc3c(cc(CNC4(C)CCC4)cc3C(F)(F)F)C2=O)c1                      =          1400
18  CCOC1CC([C@@H](c2cccc(N3Cc4c(cc(CNC5(C)CCC5)cc4C(F)(F)F)C3=O)c2)c2nncn2C)C1 (single isomer, unassigned) [Compound 266]                      =          6700
19  C[C@@H](NC1(C)CCC1)c1cc2c(c(C(F)(F)F)c1)CN(c1cccc(C3(c4nncn4C)CC(F)(F)C3)c1)C2=O (single isomer, unassigned)                      =           8.5
20  Cn1cnnc1[C@]1(c2cc(NC3CC(F)(F)C3)nc(N3Cc4c(cc(CNC5(C)CCC5)cc4C(F)(F)F)C3=O)c2)C[C@H](C)C1                      =            14
21  Cn1cnnc1[C@H](C[C@@H]1CCOC1)c1cccc(N2Cc3c(cc(CNC4(C)CCC4)cc3C(F)(F)F)C2=O)c1                      ≥         20000
22  Cn1cnnc1[C@]1(c2cccc(N3Cc4c(cc(CNC5(C)CCC5)cc4C(F)(F)F)C3=O)c2)C[C@@](O)(C(F)(F)F)C1                      =           360
23  C[C@H](NC1(C)CCC1)c1cc2c(c(C(F)(F)F)c1)CN(c1cccc(C3(c4nncn4C)CC(F)(F)C3)c1)C2=O (single isomer, unassigned)                      =            20
